Reference source for all entries: ChEMBL document CHEMBL5532690

Tested on: Mycobacterium tuberculosis
Assay: Antitubercular activity against isoniazid and rifampicin resistant Mycobacterium tuberculosis mc2 8259 measured after 10 days by liquid broth microdilution assay
Assay type: functional
Conditions: mc2 8259, 240 h, time 10 day
reported-property: MIC90 (mg/L)
Return type: number; implicit unit mg/L.

query: // MIC90 lookup, key: CC(C)c1ccc2nc(SCC(=O)NC3CCCCC3)sc2c1
result: 4

query: // MIC90 lookup, key: O=C(CSc1nc2ccccc2c(=O)[nH]1)NC1CCCCC1
result: 0.125

query: // MIC90 lookup, key: Cc1cc(C)c2nc(SCC(=O)NC3CCCCC3)sc2c1
result: 4

query: // MIC90 lookup, key: O=C(CSc1nc2c(Br)cc(F)cc2s1)NC1CCCCC1
result: 8
